protocol-details: HT-logP o/w, high throughput assay based on artificial liquid membrane permeability
Assay type: physicochemical
run-conditions: octanol/water
experimental-readout: HT LogP ohw
Numbers only.

Reference set, count: 3
compound	measured-result
C[C@H]1OC(=O)C[C@H]1NC(=O)C[C@H](CCCCN)NC(=O)[C@@H](Cc1c[nH]c2ccccc12)NC(=O)C[C@@H](N)Cc1ccccc1 [Compound 29]	3.3
CCCCCCN(C)C(=O)C[C@H](CCCCN)NC(=O)[C@@H](Cc1c[nH]c2ccccc12)N(Cc1ccccc1)C(=O)C[C@H](Cc1ccccc1)NC(=O)CC [Compound 69]	5.1
CCCCCN(C)C(=O)C[C@H](CCCCN)NC(=O)[C@@H](Cc1c[nH]c2ccccc12)NC(=O)C[C@H](Cc1ccccc1)NC(=O)CC [Compound 49]	3.7

Count: 2. Required value per item: HT LogP ohw.
1. CCCCCNC(=O)C[C@H](CCCCN)NC(=O)[C@@H](Cc1c[nH]c2ccccc12)NC(=O)C[C@H](Cc1ccccc1)NC(=O)CC [Compound 51]
2. CCCCCNC(=O)C[C@H](CCCCN)NC(=O)[C@@H](Cc1c[nH]c2ccccc12)NC(=O)C[C@H](Cc1ccccc1)NC(C)=O [Compound 45]

OUTPUT:
1: 3.4; 2: 3.2

###

protocol-details: high throughput solubility (HT-Solubility)
Type: physicochemical
run-conditions: pH 1, pH 1.0; read-out: HT-Solubility pH 1.0
Field: solubility. Provide a value for each of the compounds that follow.
Give bare numbers, in µg/mL.

compound	experimental-readout	output-unit	measured-result
CCCCCN(C)C(=O)C[C@H](CCCCN)NC(=O)[C@@H](Cc1c[nH]c2ccccc12)NC(=O)C[C@H](Cc1ccccc1)NC(=O)CC [Compound 48]	solubility	µg/mL	129
C[C@H]1OC(=O)C[C@H]1NC(=O)C[C@H](CCCCN)NC(=O)[C@@H](Cc1cn(C)c2ccccc12)NC(=O)C[C@H](Cc1ccccc1)NC(=O)CCc1ccccc1 [Compound 19]	solubility	µg/mL	15
NCCCC[C@@H](CC(=O)NC1CCCC1)NC(=O)[C@@H](Cc1c[nH]c2ccccc12)NC(=O)C[C@@H](N)Cc1ccccc1 [Compound 62]	solubility	µg/mL	115
CC(C)[C@@H](CC(=O)N(C)CCc1ccccc1)NC(=O)C[C@H](CCCCN)NC(=O)[C@@H](Cc1c[nH]c2ccccc12)NC(=O)C[C@H](Cc1ccccc1)NC(=O)C12CC3CC(CC(C3)C1)C2 [Compound 27]	solubility	µg/mL	45
NCCCC[C@@H](CC(N)=O)NC(=O)[C@@H](Cc1c[nH]c2ccccc12)NC(=O)C[C@@H](N)Cc1ccccc1 [Compound 59, (S)-β^3-HPhe-(R)-Trp-(S)-β^3-HLys-NH2]	solubility	µg/mL	101
CCCCCNC(=O)C[C@H](CCCCN)NC(=O)[C@@H](Cc1c[nH]c2ccccc12)NC(=O)C[C@H](Cc1ccccc1)NC(=O)CCC [Compound 55]	solubility	µg/mL	64.7

Count: 5. Required value per item: solubility.
1. C[C@H]1OC(=O)C[C@H]1NC(=O)C[C@H](CCCCN)NC(=O)[C@@H](Cc1c[nH]c2ccccc12)NC(=O)C[C@@H](N)Cc1ccccc1 [Compound 28]
2. NCCCC[C@@H](CC(=O)NC1CCCC1)NC(=O)[C@@H](Cc1c[nH]c2ccccc12)NC(=O)C[C@H](Cc1ccccc1)NC(=O)CCc1ccccc1 [Compound 32]
3. CC(=O)N[C@H](CC(=O)N(C)[C@H](Cc1c[nH]c2ccccc12)C(=O)N[C@@H](CCCCN)CC(=O)N[C@@H]1CC(=O)O[C@@H]1C)Cc1ccccc1 [Compound 40]
4. CCCCCNC(=O)C[C@H](CCCCN)NC(=O)[C@@H](Cc1c[nH]c2ccccc12)NC(=O)C[C@H](Cc1ccccc1)NC(=O)CC [Compound 50]
5. CC(=O)N[C@H](CC(=O)N[C@H](Cc1c[nH]c2ccccc12)C(=O)N[C@@H](CCCCN)CC(=O)N[C@@H]1CC(=O)O[C@@H]1C)Cc1ccccc1 [Compound 7]

OUTPUT:
1. 60.5
2. 70.7
3. 66.1
4. 127
5. 129

Numbers sourced from patent US20090305995A1.
